Catalogue of Growth Rate values
System: HEK-293T
Assay: Incucyte cell viability with HEK293T; also: unitless GR value; below 1 slowed growth and below 0 cell loss
Type: toxicity, cell-based
Details: human, 18 h, 10 µM, compound concentration 10 uM, replicate number 1, timepoint 18 hours
quantity_name: Growth Rate

>>> df
                              sample_smiles  tested_on  result
0  COc1ccc(NC(=O)c2ccc(-c3ccc(-c4noc(C)n4)cc3C)cc2)cc1OCCN(C)C.Cl   HEK-293T   -0.53
1  COc1c(C)cc(NC(=O)c2nn(Cc3ccc(F)cc3)c3c2CN(C(=O)c2ccc[nH]2)C[C@]3(C)C(N)=O)cc1C   HEK-293T    0.11
2  CN(CCN1CCC(OC(=O)Nc2ccccc2-c2ccccc2)CC1)C(=O)c1ccc(CN2CCC(C(N)=O)CC2)cc1   HEK-293T    0.98
3  Cn1cnc(-c2cc3nccc(Oc4ccc(NC(=S)NC(=O)Cc5ccccc5)cc4F)c3s2)c1   HEK-293T    0.28

----------
Catalogue of Growth Rate values
Tested on: Fibroblast
Assay: Incucyte cell viability with human fibroblast; also: unitless GR value; below 1 slowed growth and below 0 cell loss
Type: toxicity, cell-based
Settings: 24 h, 10 µM, compound concentration 10 uM, replicate number 1, timepoint 24 hours
quantity_name: Growth Rate

In [3]: df
Out[3]:
                                   compound  readout_number
0  C[N+]1(C)[C@@H]2C[C@@H](OC(=O)C(O)(c3cccs3)c3cccs3)C[C@H]1[C@@H]1O[C@@H]12.O.[Br-] [TIOTROPIUM BROMIDE]            0.95
1                  Cc1nc(C#Cc2cccnc2)cs1.Cl            0.25
2  Cl.Cl.NCCc1c[nH]cn1 [HISTAMINE DIHYDROCHLORIDE]            0.52
3  C[C@@](Cc1c[nH]c2ccccc12)(NC(=O)Nc1ccc([N+](=O)[O-])cc1)C(=O)NCC1(c2ccccn2)CCCCC1            -0.6

----------
Test system: Fibroblast
Experiment: Incucyte cell viability with human fibroblast; also: unitless GR value; below 1 slowed growth and below 0 cell loss
Type: toxicity, cell-based
Details: 24 h, 10 µM, compound concentration 10 uM, replicate number 1, timepoint 24 hours
The label Condition met is reserved for Growth Rate strictly under 0.6; Condition not met covers values equal to or above it.

compound	tested_on	assigned_class
CC[C@H]1OC(=O)[C@H](C)[C@@H](O[C@H]2C[C@@](C)(OC)[C@@H](O)[C@H](C)O2)[C@H](C)[C@@H](O[C@@H]2O[C@H](C)C[C@H](N(C)C)[C@H]2O)[C@@]2(C)CC(C)=C(O2)[C@H](C)[C@@H](O)[C@]1(C)O	Fibroblast	Condition not met
CN[C@@H]1Cc2cccc3[nH]c(=O)n(c23)C1.O=C(O)/C=C\C(=O)O	Fibroblast	Condition met
O=C([O-])[C@H]1O[C@H](OP(=O)([O-])OP(=O)([O-])OC[C@H]2O[C@@H](n3ccc(=O)[nH]c3=O)[C@H](O)[C@@H]2O)[C@H](O)[C@@H](O)[C@@H]1O.[Na+].[Na+].[Na+]	Fibroblast	Condition not met
CS(=O)(=O)N1CCCC(NC(=O)[C@H](CCC2CCCCC2)NC(=O)c2ccc(CNc3ncnc4c3nnn4-c3ccccc3)cc2)C1 (stereo partly specified)	Fibroblast	Condition met
COc1ccccc1N1CCN(C[C@@H](C(=O)NC(C)(C)C)c2ccccc2)CC1.Cl.Cl	Fibroblast	Condition met
CCCCCCCCc1ccc(CCC(N)(CO)CO)cc1	Fibroblast	Condition met
CN1CCN(c2cc(-c3ccccc3)nc(N)n2)CC1	Fibroblast	Condition not met
O=c1c2cccn2c2ccccc2n1CCCN1CCC(c2ccc(Cl)cc2)CC1	Fibroblast	Condition met
Cc1ccccc1N1CCN(CCc2nnc3n2CCCC3)CC1.Cl [DAPIPRAZOLE HYDROCHLORIDE]	Fibroblast	Condition not met
COc1cc(C(=O)N2CC[C@@H](O)[C@@H](N)C2)cc2nc(-c3cc4ccccc4n3CC3CC3)n(C)c12.Cl	Fibroblast	Condition met
CC[S+]([O-])c1nc(-c2cccc(OCc3ccccc3)c2)cc(C(F)(F)F)n1 (stereo unspecified)	Fibroblast	Condition met
CCCCC/C=C\C/C=C\C/C=C\C/C=C\CCCC(=O)NCC(=O)O	Fibroblast	Condition not met
CN[C@@H]1CCc2[nH]c3ccc(C(N)=O)cc3c2C1.O.O=C(O)CCC(=O)O [FROVATRIPTAN SUCCINATE]	Fibroblast	Condition not met
Cc1sc2c(c1C)C(c1ccc(Cl)cc1)=N[C@@H](CC(=O)NCCCCCCCCNC(=O)COc1cccc3c1C(=O)N(C1CCC(=O)NC1=O)C3=O)c1nnc(C)n1-2 (stereo partly specified)	Fibroblast	Condition met
Nc1nc(-c2ccco2)c2cnn(Cc3ccccc3F)c2n1	Fibroblast	Condition met
CCCCCC(O)/C=C/[C@H]1C(=O)CC(O)C1C/C=C\CCCC(=O)O (stereo partly specified)	Fibroblast	Condition met

----------
Test system: U2OS
Test: Incucyte cell viability with U2OS; also: unitless GR value; below 1 slowed growth and below 0 cell loss
Assay type: toxicity, cell-based
Conditions: human, 0 h, 10 µM, compound concentration 10 uM, replicate number 1, timepoint 0 hours
The label condition met is reserved for Growth Rate strictly under -0.4; condition not met covers values equal to or above it.

>>> print(df.to_string())
                                   compound  tested_on     assigned_class
0  COc1cc(OC2CCN(C(C)=O)CC2)ccc1C(=O)N1CCC(N2C(=O)OCc3ccccc32)CC1       U2OS  condition not met
1  Cc1c(C(=O)Nc2ccc(N3C[C@@H](C)O[C@@H](C)C3)nc2)cccc1-c1ccc(OC(F)(F)F)cc1       U2OS      condition met
2  COCCN1CCC(c2cc(CN(C)C(=O)c3cccc(Oc4ccccc4)c3)ccn2)CC1       U2OS      condition met
3  CCCCC/C=C\C/C=C\C/C=C\C/C=C\CCCC(=O)NCC(=O)O       U2OS  condition not met
4  CCCn1c(=O)c2[nH]c(-c3ccc(OCC(=O)Nc4ccc(C#N)cc4)cc3)nc2n(CCC)c1=O       U2OS  condition not met
5  Cc1cc(NC(=O)NCCN2CCC(O)(Cc3ccccc3)CC2)c2ccccc2n1       U2OS  condition not met
6  Cc1ccccc1-c1cc(N2CCN(C)CC2)ncc1N(C)C(=O)C(C)(C)c1cc(C(F)(F)F)cc(C(F)(F)F)c1       U2OS      condition met
7  COC[C@@H](c1ccc(C(F)(F)F)cc1)N1CCN(C2(C)CCN(C(=O)c3c(C)ncnc3C)CC2)C[C@@H]1C.O=C(O)/C=C\C(=O)O [VICRIVIROC MALEATE]       U2OS      condition met

----------
System: HEK-293T
Assay: Incucyte cell viability with HEK293T; also: unitless GR value; below 1 slowed growth and below 0 cell loss
Format: toxicity, cell-based
Details: human, 12 h, 10 µM, compound concentration 10 uM, replicate number 1, timepoint 12 hours
Where a SMILES comes first, the peptide text is derived from it. [ ]: non-standard residue; d: D form.
Cut-off 0.7 on Growth Rate, inclusive. At or above means 1; below means 0.

compound	assigned_class
CCn1c(-c2nc3cc(C(=O)N4CCCC(N)C4)ccc3n2C)cc2ccccc21.Cl (stereo not drawn)	0
CN(C)C(=O)Cn1cc(-c2ccc(-c3nnc4ccccn34)cc2)cn1	1
COC[C@@H](c1ccc(C(F)(F)F)cc1)N1CCN(C2(C)CCN(C(=O)c3c(C)ncnc3C)CC2)C[C@@H]1C.O=C(O)/C=C\C(=O)O [VICRIVIROC MALEATE]	0
CC(C)C[C@@H]1NC(=O)[C@@H](C(C)C)NC(=O)[C@@H]2CCCN2C(=O)[C@@H](CC(=O)O)NC(=O)[C@@H](Cc2c[nH]c3ccccc23)NC1=O [BQ-123] (cyclo(L[dW][dD]P[dV]))	1
CN[C@@H](C)C(=O)N[C@H](C(=O)N1CCC[C@H]1C(=O)Nc1snnc1-c1ccccc1)C1CCCCC1	0
CC(C)COc1ccc(CNC(=O)N(Cc2ccc(F)cc2)C2CCN(C)CC2)cc1	0

----------
System: HEK-293T
Experiment: Incucyte cell viability with HEK293T; also: unitless GR value; below 1 slowed growth and below 0 cell loss
Type: toxicity, cell-based
Details: human, 24 h, 10 µM, compound concentration 10 uM, replicate number 1, timepoint 24 hours

compound	Growth Rate
CSc1ccccc1N1CCN(CCCCCC(=O)NC2CCCc3ccccc32)CC1.Cl (configuration not stated)	0.29
Cl.Cl.NCCc1c[nH]cn1 [HISTAMINE DIHYDROCHLORIDE]	0.82
COC(=O)Nc1nc2ccc(C(=O)c3cccs3)cc2[nH]1	-0.22
Nc1ncnc2c1ncn2[C@@H]1O[C@H](CO)[C@@H](O)[C@H]1O	0.79
NC(N)=Nc1nc(CSCCC(N)=NS(N)(=O)=O)cs1	0.96
Nc1nc(-c2ccco2)c2cnn(Cc3ccccc3F)c2n1	-0.12
O=C(NC[C@@H]1[C@H]2CN(C(=O)OCc3cc(C(F)(F)F)cc(C(F)(F)F)c3)C[C@@H]12)c1ccc2[nH]nnc2c1	0.64
CCCCCC(O)/C=C/[C@H]1C(=O)CC(O)C1C/C=C\CCCC(=O)O (some centres not stated)	0.58
CCOC(=O)N[C@@H]1CC[C@@H]2[C@@H](C1)C[C@H]1C(=O)O[C@H](C)[C@H]1[C@H]2/C=C/c1ccc(-c2cccc(F)c2)cn1	0.45
COc1c(Nc2ccc(S(C)(=O)=O)nc2C)ncnc1OC1CCN(C(=O)OC(C)C)CC1	0.74
Nc1cnc(N2CCc3cc(S(=O)(=O)Nc4c(F)cc(Cl)cc4F)cc(N4CCCC4=O)c32)nc1 [TP-020n]	0.74
Cc1ccccc1C#Cc1ccc(CCC(=O)O)cc1	0.74
Cc1ccccc1N1CCN(S(=O)(=O)C[C@]23CC[C@H](C[C@@H]2NC(=O)[C@@H](N)CCS(C)(=O)=O)C3(C)C)CC1.Cl	0.97
Br.Br.N=C(N)NCCSC(=N)N	1
COc1cc(C(=O)N2CC[C@@H](O)[C@@H](N)C2)cc2nc(-c3cc4ccccc4n3CC3CC3)n(C)c12.Cl	0.77
CCNC(=O)c1cc2c(-c3cc(C(C)(C)O)ccc3Oc3c(C)cc(F)cc3C)cn(C)c(=O)c2[nH]1	0.69
CN[C@@H]1C[C@H]2O[C@@](C)([C@@H]1OC)n1c3ccccc3c3c4c(c5c6ccccc6n2c5c31)C(=O)NC4	0.11
C[C@@H]1C[C@H]2[C@@H]3CCC4=CC(=O)C=C[C@]4(C)[C@@]3(F)[C@@H](O)C[C@]2(C)[C@@]1(O)C(=O)CO	0.7
Cc1cc(=O)n(C)c2cc(N3C(=O)CC[C@H](NS(=O)(=O)CC(C)C)[C@H]3c3ccc(Cl)cc3)ccc12	0.18
Cc1nc(C#Cc2cccnc2)cs1.Cl	0.76
CCOC(=O)c1c(/C(C#N)=C\N)c2ccc(Cl)c(Cl)c2n1C	0.99
C[C@@H]1CC(=O)Nc2cccc(-c3ccc4c(c3)c(-c3cnn(C)c3)nn4C)c2N1	0.38
CN(C)C(=O)N1CC[C@H](NC2=Nc3cc(F)ccc3N(CC(F)F)c3ccc(Cl)cc32)C1	0.83
CCCCCCCCCCCCC/C=C/[C@@H](O)[C@@H](N)COP(=O)([O-])OCC[N+](C)(C)C	0.43
O=c1ccn([C@@H]2O[C@H](COP(=O)([O-])OP(=O)([O-])OP(=O)([O-])OP(=O)([O-])OC[C@H]3O[C@@H](n4ccc(=O)[nH]c4=O)[C@H](O)[C@@H]3O)[C@@H](O)[C@H]2O)c(=O)[nH]1.[Na+].[Na+].[Na+].[Na+] [DIQUAFOSOL TETRASODIUM]	0.85
CN(CCN1CCC(OC(=O)Nc2ccccc2-c2ccccc2)CC1)C(=O)c1ccc(CN2CCC(C(N)=O)CC2)cc1	0.9
CC(C)[C@H](C(=O)Nc1ccc(C(=O)NO)cc1)c1ccccc1	0.18

All figures here come from ChEMBL document CHEMBL5058564.
